test system: 349418-098-R-PDC complex spheroid viability; experiment: Anticancer human tumor 349418-098-R-PDC patient-derived lung adenocarcinoma cell line growth inhibition [RAS]; settings: second compound 0.3 µM; first compound 0.316 µM; active = viability on the fitted dose curve at most 10% of control; inactive = the rest;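 also: spheroids exposed to compound for seven days before viability readout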
Pick from Yes (active), No (inactive) when you respond.

Look up the recorded call for Nc1ccn(C2OC(CO)C(O)C2(F)F)c(=O)n1 (centres undefined) + CCn1c(-c2cc(N3CCN(C)CC3)cnc2C(C)OC)c2c3cc(ccc31)-c1csc(n1)CC(NC(=O)C1CC1C)C(=O)N1CCCC(N1)C(=O)OCC(C)(C)C2 in this test.
Yes

# lookup: test call for Nc1ccn(C2OC(CO)C(O)C2(F)F)c(=O)n1 (centres undefined) + CCn1c(-c2cccnc2C(C)OC)c2c3cc(ccc31)N1CCOC(CC(NC(=O)C(C(C)C)N(C)C(=O)C3(F)CCN(C(=O)C#CC(C)(C)N(C)C)CC3)C(=O)N3CCCC(N3)C(=O)OCC(C)(C)C2)C1
Yes

Given CC(C)NCC(C(=O)N1CCN(c2ncnc3c2C(C)CC3O)CC1)c1ccc(Cl)cc1 (centres undefined) + CCn1c(-c2cc(N3CCN(C)CC3)cnc2C(C)OC)c2c3cc(ccc31)-c1csc(n1)CC(NC(=O)C1CC1C)C(=O)N1CCCC(N1)C(=O)OCC(C)(C)C2 , state the outcome it received in this test.
No

How did this test come out for O=C(c1ccc(F)c(F)c1Nc1ccc(I)cc1F)N1CC(O)([C@@H]2CCCCN2)C1 + CCn1c(-c2cc(N3CCN(C)CC3)cnc2C(C)OC)c2c3cc(ccc31)-c1csc(n1)CC(NC(=O)C1CC1C)C(=O)N1CCCC(N1)C(=O)OCC(C)(C)C2 ?
Yes
